Would you kindly list residual activity for each of these molecules?
biological target: Tyrosine-protein kinase JAK3 (Homo sapiens); conditions: at 10 µM
The reply should be a number in %, with the unit left off.

GET /values?readout=residual activity&item= `COc1cc(OC)c(/C=C2\C(=O)Nc3ccccc32)c(OC)c1`
100

Cool, now `COc1cc2ncnc(Nc3ccc(OCc4ccccc4)cc3)c2cc1OC`
100

Cool, now `COC(=O)[C@@]1(O)C[C@H]2O[C@]1(C)n1c3ccccc3c3c4c(c5c6ccccc6n2c5c31)C(=O)NC4`
0

Cool, now `COc1ccc2c(c[n+](C)c3c4cc5c(cc4ccc23)OCO5)c1OC`
67

Cool, now `O=[N+]([O-])/C=C/c1ccc2c(c1)OCO2`
108

Cool, now `CCc1nc(-c2ccc(OC)cc2)[nH]c1-c1ccncc1`
103

Cool, now C[S+]([O-])c1ccc(-c2nc(-c3ccc(F)cc3)c(-c3ccncc3)[nH]2)cc1 (configuration not stated)
112

The reported measurements were obtained from ChEMBL document CHEMBL2218924.
